RECORDED METRIC: melting point

Known melting point results, listed for orientation:
Ask: Any idea what melting point was measured for c1ccc2c(c1)nc1n2CCC(CN2CCNCC2)S1 (stereo unspecified) ?
Result: 151 to 153 °C

Ask: Any idea what melting point was measured for CCCCc1nc2cnccc2n1Cc1ccc(C(=O)O)cc1 ?
Result: 210 °C

Ask: Any idea what melting point was measured for COc1c(CN(C)C)c2c(c3c1OC(C)(C)C3)C(c1ccccc1)=NC(C)(C)C2 ?
Result: 124 to 125 °C

Ask: Any idea what melting point was measured for O=C(O)CCCc1ccc2c(c1)CCC2 ?
Result: 57 to 58 °C

Ask: Any idea what melting point was measured for CN1C(=O)C(C(=O)Nc2cccc(F)c2)S(=O)(=O)c2ccccc21 (stereo unspecified) ?
Result: 206 to 208 °C

***
Ask: Any idea what melting point was measured for O=S(=O)(NC(=S)NC1CCCCC1)c1cnccc1NC1CCCCCC1 ?
Result: 195 to 197 °C

Ask: Any idea what melting point was measured for CCOC(=O)C(NC(=O)NN1CC(=O)NC1=O)c1cccs1 (stereo unspecified) ?
Result: 151 to 155 °C

Ask: Any idea what melting point was measured for CCCc1c(OCC(O)COc2ccc3c(=O)cc(CCC(=O)OCC)oc3c2CCC)ccc(C(C)=O)c1O (stereo unspecified) ?
Result: 137 to 138 °C

Ask: Any idea what melting point was measured for CC1(C)NC(SCc2ccccc2)=NC1=S ?
Result: 133 to 134 °C

Ask: Any idea what melting point was measured for COc1ccc(C(=O)Nc2ccccc2/C=C/c2ccnc(C)c2)cc1 ?
Result: 183 to 184 °C

Ask: Any idea what melting point was measured for CC(C)(C)C(NC(=O)c1ccc(Cl)cc1)NC(Nc1cccnc1)=C(C#N)C#N (stereo unspecified) ?
Result: 213 to 214 °C

Ask: Any idea what melting point was measured for CS(=O)(=O)c1sccc1SCc1ccccc1 ?
Result: 95 to 97 °C

Ask: Any idea what melting point was measured for COc1ccc(OC)c(-c2cccc(-n3cnc(-c4nc(C)no4)c3)c2)c1 ?
Result: 127 to 129 °C

###

RECORDED METRIC: melting point

Known melting point results, listed for orientation:
Ask: Any idea what melting point was measured for CNC(=O)c1cc(-c2ccc(F)cc2)c2c3c(ccc2n1)OCO3 ?
Result: 233 to 235 °C

Ask: Any idea what melting point was measured for COc1ccc(CCc2nc(Br)c(C(F)(F)F)[nH]2)cc1 ?
Result: 104 to 106 °C

Ask: Any idea what melting point was measured for COc1nc(C(F)(F)C(F)(F)F)c(F)c(=O)n1-c1cc(C(=O)OC(C)C)c(Cl)cc1F ?
Result: 75 to 77 °C

Ask: Any idea what melting point was measured for NC(=O)c1ccc(C(F)(F)F)cc1-c1cnccc1Oc1cccc(CCC(=O)N2CCN(Cc3ccc4c(c3)OCO4)CC2)c1 ?
Result: 140 to 141 °C

Ask: Any idea what melting point was measured for C=CCOCc1nc(C(C)(C)C)nn1-c1c(Cl)cc(Cl)cc1Cl ?
Result: 34 to 37 °C

***
Ask: Any idea what melting point was measured for CC(O)(c1nc2ccc(I)cc2c(=O)[nH]1)C(F)(F)F (configuration not stated) ?
Result: 205 to 207 °C

Ask: Any idea what melting point was measured for Cc1cc(C2=NOC(c3cc(Cl)cc(Cl)c3)(C(F)(F)F)C2)ccc1C(=O)Nc1ncccn1 (configuration not stated) ?
Result: 122 to 124 °C

Ask: Any idea what melting point was measured for O=S(c1ccccc1)c1cccnc1 (configuration not stated) ?
Result: 56 °C

Ask: Any idea what melting point was measured for CCCCc1nc2sc(C(=O)O)cc2n1Cc1ccc(-c2ccccc2C(=O)O)cc1 ?
Result: 264 °C

Ask: Any idea what melting point was measured for c1ccc(-c2ccc3[nH]c4c(c3c2)CCNCC4)cc1 ?
Result: > 250 °C

Ask: Any idea what melting point was measured for N[C@H]1C=C(C(=O)O)OC1 ?
Result: 193 to 195 °C

Ask: Any idea what melting point was measured for CS(=O)(=O)Nc1c(CCCCCCC(=O)O)ccc2ccccc12 ?
Result: 122 to 127 °C

###

RECORDED METRIC: melting point

Known melting point results, listed for orientation:
Ask: Any idea what melting point was measured for O=S1(=O)CC(=Cc2ccc(Cl)cc2)C2=NN(c3ccccc3)C(c3ccc(Cl)cc3)C2C1 (stereo not given) ?
Result: 246 to 249 °C

Ask: Any idea what melting point was measured for CC(C)N(CCC1(c2ccccc2)C(=O)NCN2CCCCC21)C(C)C (stereo not given) ?
Result: 164 to 166 °C

***
Ask: Any idea what melting point was measured for C=CNC(=O)C(C)(Cc1ccccc1)S(=O)(=O)CCCl (stereo not given) ?
Result: 107 to 108 °C

Ask: Any idea what melting point was measured for O=Cc1cn(-c2ccc(F)cc2)c2ccc(Cl)cc12 ?
Result: 152 to 154 °C

Ask: Any idea what melting point was measured for CC(=O)OC1=CC2=CCC3C4CC(C)C(O)(CC(=O)OC(=O)C(C)(C)C)C4(C)CC4OC43C2(C)C=C1 (stereo not given) ?
Result: 108 to 120 °C

###

RECORDED METRIC: melting point

Known melting point results, listed for orientation:
Ask: Any idea what melting point was measured for CS(=O)(=O)Nc1cc2oc(C#N)c(NC=O)c(=O)c2cc1Oc1ccccc1 ?
Result: 229 to 230 °C

Ask: Any idea what melting point was measured for O=C(O)c1ccccc1C(=O)NCCCCc1cccnc1 ?
Result: 132 to 135 °C

Ask: Any idea what melting point was measured for NCc1cccc(OCCSc2nc[nH]n2)c1 ?
Result: > 300 °C

***
Ask: Any idea what melting point was measured for C=C1CC2(C)C(O)CCC2C2C(C)CC3=CC(=O)CCC3C12 (stereo not given) ?
Result: 138 to 139 °C

Ask: Any idea what melting point was measured for O=C(O)CCC(=O)c1ccc(NC(=O)CCN2CCC(c3ccccc3)CC2)cc1 ?
Result: 237 to 238 °C

###

The entries below are paired with their reported melting point.

Known melting point results, listed for orientation:
Ask: Any idea what melting point was measured for N#CC(CN)C(CO)c1ccc(Cl)c(Cl)c1 (single isomer, unassigned; (+)) ?
Result: 80 to 81 °C

Ask: Any idea what melting point was measured for O=C(NC(Cc1ccc(OCc2ccccc2)cc1)C(=O)NC1C(C(=O)O)OC(n2cnc3c(NC(=O)c4ccccc4)ncnc32)C1O)OCc1ccccc1 (stereo not drawn) ?
Result: 150 to 155 °C

Ask: Any idea what melting point was measured for Cc1ccc2ccc3ccccc3c2c1O ?
Result: 88 to 92 °C

***
Ask: Any idea what melting point was measured for COc1ccc(-c2cc(=Nc3c(C)cc(C)cc3C)n(C)c(N3CC=CCC3)n2)cc1OC ?
Result: 161 to 163 °C

Ask: Any idea what melting point was measured for CCNc1c(C(=O)O)ccc(Br)c1OCC ?
Result: 129 to 139 °C

Ask: Any idea what melting point was measured for CN(C)C=CC(=O)C(=O)c1ccccc1 ?
Result: 88 °C

Ask: Any idea what melting point was measured for COc1ccc(CNc2n[nH]cc2C(=O)O)cc1OC1CCCC1 ?
Result: 134 to 136 °C

Ask: Any idea what melting point was measured for COC(=O)Cn1nnnc1-c1c(Cl)c(Cl)cc2[nH]c(=O)c(=O)[nH]c12 ?
Result: 281 to 283 °C

###

The entries below are paired with their reported melting point.

Ask: Any idea what melting point was measured for CCOC(=O)CC(=O)c1cc(F)c(N2CCNCC2)nc1Nc1ccc(F)cc1F ?
Result: 121 to 123 °C

Ask: Any idea what melting point was measured for COC(=O)c1ccccc1CS(=O)(=O)N=c1nc2nc(OC)cc(OC)n2s1 ?
Result: 153 to 154 °C

Ask: Any idea what melting point was measured for O=C(NCC(O)c1cccc(OCc2ccc3ccccc3n2)c1)c1ccccn1 (stereo not drawn) ?
Result: 126 to 129 °C

Ask: Any idea what melting point was measured for COc1ccc(-c2nc(C)nn2-c2ccc(S(N)(=O)=O)cn2)cc1 ?
Result: 191 to 192 °C

Ask: Any idea what melting point was measured for O=C(Nc1ccc2c(c1)CCC2)C(=O)N1CCC(Cc2ccccc2)CC1 ?
Result: 106 to 109 °C

Ask: Any idea what melting point was measured for CCOC(=O)C(NC(=O)c1ccc(C)cc1)C(=O)OCC ?
Result: 98 to 99 °C

Ask: Any idea what melting point was measured for COC(=O)C(=C1SCCCN1C(=O)OC)[N+](=O)[O-] ?
Result: 71 to 72 °C

Read the next record carefully.
Ask: Any idea what melting point was measured for O=S1(=O)CCC(c2ccc(N3CCN(CC(O)(Cn4cncn4)c4ccc(Cl)cc4Cl)CC3)cc2)CN1 (stereo not drawn) ?
Result: 68 to 70 °C
